assay: ZEN concentrations and carryover factor in intestinal tissues and liver of pre-pubertal gilts exposed per os (HPLC); assay type: in vivo; details: female, pig, duodenum, oral, 40 μg/kg BW, Week VI of exposure; 40 μg/kg BW daily per os; total ZEN dose 1680 µg/kg BW; read-out: ZEN Concentrations (x¯ and SD), Duodenum
MEASURE_NAME: concentration at 6 weeks (ng/g)
Answers are plain numbers, in ng/g.

INPUT: GET /values?readout=concentration at 6 weeks&item= C[C@H]1CCCC(=O)CCC/C=C/c2cc(O)cc(O)c2C(=O)O1 [ZEN, zearalenone]
OUTPUT: 80.7

* * *

experiment: ZEN concentrations and carryover factor in intestinal tissues and liver of pre-pubertal gilts exposed per os (HPLC); assay type: in vivo; conditions: female, pig, transverse colon, oral, 40 μg/kg BW, Week VI of exposure; 40 μg/kg BW daily per os; total ZEN dose 1680 µg/kg BW; read-out: ZEN Concentrations (x¯ and SD), Transverse Colon
MEASURE_NAME: concentration at 6 weeks (ng/g)
Give bare numbers, in ng/g.

INPUT: GET /values?readout=concentration at 6 weeks&item= C[C@H]1CCCC(=O)CCC/C=C/c2cc(O)cc(O)c2C(=O)O1 [ZEN, zearalenone]
OUTPUT: 6.7

* * *

assay: ZEN concentrations and carryover factor in intestinal tissues and liver of pre-pubertal gilts exposed per os (HPLC); format: in vivo; conditions: female, pig, descending colon, oral, 40 μg/kg BW, Week VI of exposure; 40 μg/kg BW daily per os; total ZEN dose 1680 µg/kg BW; read-out: ZEN Concentrations (x¯ and SD), Descending Colon
MEASURE_NAME: concentration at 6 weeks (ng/g)
One number for each entry, in ng/g.

INPUT: GET /values?readout=concentration at 6 weeks&item= C[C@H]1CCCC(=O)CCC/C=C/c2cc(O)cc(O)c2C(=O)O1 [ZEN, zearalenone]
OUTPUT: 112

* * *

assay: ZEN concentrations and carryover factor in intestinal tissues and liver of pre-pubertal gilts exposed per os (HPLC); format: in vivo; conditions: female, pig, descending colon, oral, 40 μg/kg BW daily, Week IV of exposure; 40 μg/kg BW daily per os; total ZEN dose 1120 µg/kg BW; read-out: ZEN Concentrations (x¯ and SD), Descending Colon
MEASURE_NAME: concentration at 4 weeks (ng/g)
Numbers only, in ng/g.

INPUT: GET /values?readout=concentration at 4 weeks&item= C[C@H]1CCCC(=O)CCC/C=C/c2cc(O)cc(O)c2C(=O)O1 [ZEN, zearalenone]
OUTPUT: 205

* * *

assay: ZEN concentrations and carryover factor in intestinal tissues and liver of pre-pubertal gilts exposed per os (HPLC); format: in vivo; conditions: female, pig, liver, oral, 40 μg/kg BW, Week III of exposure; 40 μg/kg BW daily per os; total ZEN dose 840 µg/kg BW; read-out: ZEN Concentrations (x¯ and SD), Liver
MEASURE_NAME: concentration at 3 weeks (ng/g)
Numbers only, in ng/g.

INPUT: GET /values?readout=concentration at 3 weeks&item= C[C@H]1CCCC(=O)CCC/C=C/c2cc(O)cc(O)c2C(=O)O1 [ZEN, zearalenone]
OUTPUT: 13

* * *

Experiment: ZEN concentrations and carryover factor in intestinal tissues and liver of pre-pubertal gilts exposed per os (HPLC)
Type: in vivo
Settings: female, pig, transverse colon, oral, 40 μg/kg BW, Week III of exposure; 40 μg/kg BW daily per os; total ZEN dose 840 µg/kg BW; read-out: ZEN Concentrations (x¯ and SD), Transverse Colon
Procedure: The animals were divided into an experimental group (E, n = 18) and a control group (C, n = 21). Group E animals were orally administered ZEN at 40 μg/kg BW. Group C pigs were fed a placebo. […] The concentrations of ZEN and its derivatives were determined by HPLC with the use of the Waters 2695 Separations Module, Waters 2475 Multi λ Fluorescence Detector and Waters 2996 Array Detector. […] Detection limits were determined at 0.001 µg·g^−1 for ZEN, 0.003 µg·g^−1 for α-ZEL and 0.002 µg·g^−1 for β-ZEL. […]
MEASURE_NAME: concentration at 3 weeks (ng/g)
Answers are plain numbers, in ng/g.

INPUT: GET /values?readout=concentration at 3 weeks&item= C[C@H]1CCCC(=O)CCC/C=C/c2cc(O)cc(O)c2C(=O)O1 [ZEN, zearalenone]
OUTPUT: 3.94

* * *

assay: ZEN concentrations and carryover factor in intestinal tissues and liver of pre-pubertal gilts exposed per os (HPLC); assay type: in vivo; settings: female, pig, ascending colon, oral, 40 μg/kg BW daily, Week IV of exposure; 40 μg/kg BW daily per os; total ZEN dose 1120 µg/kg BW; read-out: ZEN Concentrations (x¯ and SD), Ascending Colon
MEASURE_NAME: concentration at 4 weeks (ng/g)
One number for each entry, in ng/g.

INPUT: GET /values?readout=concentration at 4 weeks&item= `C[C@H]1CCCC(=O)CCC/C=C/c2cc(O)cc(O)c2C(=O)O1`
OUTPUT: 4.7

* * *

assay: ZEN concentrations and carryover factor in intestinal tissues and liver of pre-pubertal gilts exposed per os (HPLC); type: in vivo; conditions: female, pig, cecum, oral, 40 μg/kg BW daily, Week V of exposure; 40 μg/kg BW daily per os; total ZEN dose 1400 µg/kg BW; read-out: ZEN Concentrations (x¯ and SD), Cecum
MEASURE_NAME: concentration at 5 weeks (ng/g)
One number for each entry, in ng/g.

INPUT: GET /values?readout=concentration at 5 weeks&item= `C[C@H]1CCCC(=O)CCC/C=C/c2cc(O)cc(O)c2C(=O)O1`
OUTPUT: 18.2

* * *

assay: ZEN concentrations and carryover factor in intestinal tissues and liver of pre-pubertal gilts exposed per os (HPLC); type: in vivo; conditions: female, pig, duodenum, oral, 40 μg/kg BW daily, Week I of exposure; 40 μg/kg BW daily per os; total ZEN dose 280 µg/kg BW; read-out: ZEN Concentrations (x¯ and SD), Duodenum
MEASURE_NAME: concentration at 1 week

INPUT: GET /values?readout=concentration at 1 week&item= C[C@H]1CCCC(=O)CCC/C=C/c2cc(O)cc(O)c2C(=O)O1 [ZEN, zearalenone]
OUTPUT: 8.6 ng/g

* * *

test: ZEN concentrations and carryover factor in intestinal tissues and liver of pre-pubertal gilts exposed per os (HPLC); format: in vivo; settings: female, pig, ascending colon, oral, 40 μg/kg BW daily, Week V of exposure; 40 μg/kg BW daily per os; total ZEN dose 1400 µg/kg BW; read-out: ZEN Concentrations (x¯ and SD), Ascending Colon
MEASURE_NAME: concentration at 5 weeks
// return the numeric value with its unit appended

INPUT: GET /values?readout=concentration at 5 weeks&item= `C[C@H]1CCCC(=O)CCC/C=C/c2cc(O)cc(O)c2C(=O)O1`
OUTPUT: 3.4 ng/g

* * *

test: ZEN concentrations and carryover factor in intestinal tissues and liver of pre-pubertal gilts exposed per os (HPLC); format: in vivo; settings: female, pig, jejunum, oral, 40 μg/kg BW daily, Week IV of exposure; 40 μg/kg BW daily per os; total ZEN dose 1120 µg/kg BW; read-out: ZEN Concentrations (x¯ and SD), Jejunum
MEASURE_NAME: concentration at 4 weeks (ng/g)
One number for each entry, in ng/g.

INPUT: GET /values?readout=concentration at 4 weeks&item= `C[C@H]1CCCC(=O)CCC/C=C/c2cc(O)cc(O)c2C(=O)O1`
OUTPUT: 43.8

* * *

Experiment: ZEN concentrations and carryover factor in intestinal tissues and liver of pre-pubertal gilts exposed per os (HPLC)
Assay type: in vivo
Details: female, pig, duodenum, oral, 40 μg/kg BW daily, Week V of exposure; 40 μg/kg BW daily per os; total ZEN dose 1400 µg/kg BW; read-out: ZEN Concentrations (x¯ and SD), Duodenum
Description: The animals were divided into an experimental group (E, n = 18) and a control group (C, n = 21). Group E animals were orally administered ZEN at 40 μg/kg BW. Group C pigs were fed a placebo. […] The concentrations of ZEN and its derivatives were determined by HPLC with the use of the Waters 2695 Separations Module, Waters 2475 Multi λ Fluorescence Detector and Waters 2996 Array Detector. […] Detection limits were determined at 0.001 µg·g^−1 for ZEN, 0.003 µg·g^−1 for α-ZEL and 0.002 µg·g^−1 for β-ZEL. […]
MEASURE_NAME: concentration at 5 weeks
// return the numeric value with its unit appended

INPUT: GET /values?readout=concentration at 5 weeks&item= `C[C@H]1CCCC(=O)CCC/C=C/c2cc(O)cc(O)c2C(=O)O1`
OUTPUT: 128 ng/g

* * *

assay: ZEN concentrations and carryover factor in intestinal tissues and liver of pre-pubertal gilts exposed per os (HPLC); format: in vivo; conditions: female, pig, descending colon, oral, 40 μg/kg BW daily, Week V of exposure; 40 μg/kg BW daily per os; total ZEN dose 1400 µg/kg BW; read-out: ZEN Concentrations (x¯ and SD), Descending Colon
MEASURE_NAME: concentration at 5 weeks (ng/g)
Numbers only, in ng/g.

INPUT: GET /values?readout=concentration at 5 weeks&item= `C[C@H]1CCCC(=O)CCC/C=C/c2cc(O)cc(O)c2C(=O)O1`
OUTPUT: 177
